Assay: qHTS screen for small molecules that inhibit ELG1-dependent DNA repair in human embryonic kidney (HEK293T) cells expressing luciferase-tagged ELG1; also: nearly all actives have a fitted effect of over 55% in size
Details: HEK293T ELG1-luciferase reporter, luminescence, 16 h, DNA damage induced by 5-fluorouridine; series mostly up to 46.1 µM
Description: NIH Molecular Libraries Probe Production Network [MLPCN] NIH Chemical Genomics Center [NCGC] MLPCN Grant: 1 R03 MH092164-01 Assay Provider: Kyungjae Myung, NHGRI, NIH Keywords: MLPCN, qHTS, NCGC, genotoxicity, cancer Assay Overview: Cancer cells divide rapidly compared to normal cells in the body. During cell division, cancer cells need to duplicate their genome by DNA replication. […] With this in mind, we developed a quantitative high-throughput ELG1-luciferase reporter gene assay. […]
Hit rate of the full screen: of about 330,000 compounds, about 7,700 (2.3%) were called active. Inconclusive results (about 26%) are left out. Calls follow the shape of the dose curve; as a rule, active = well fitted inhibition curve with a large enough effect; inconclusive = small, poorly fitted or top-dose-only effect, or effect the other way; inactive = flat fitted curve, though single readings scatter. This excerpt belongs to a sample that is enriched for actives.
// one of active, inactive, no free text

These recorded examples may help you get a feel for the data.
NC(=O)c1ccc(NC(=O)COC(=O)c2c3c(nc4ccccc24)/C(=C\c2ccc4c(c2)OCO4)CCC3)cc1 ... active
N#Cc1ccccc1S(=O)(=O)N1CCN(Cc2c(O)ccc3ccccc23)CC1 ... inactive

Data request: Which outcome was assigned to "CCOc1ccc(CN2CCCN(C)CC2)cc1" in this test?
Data returned: inactive

Data request: Which outcome was assigned to "O=C(NCCc1ccccn1)c1cc(-c2ccc(Cl)cc2)nc2ccccc12" in this test?
Data returned: active

Data request: Which outcome was assigned to "NS(=O)(=O)c1ccc(NC(=O)COC(=O)c2c3c(nc4ccccc24)/C(=C\c2ccc4c(c2)OCO4)CCC3)cc1" in this test?
Data returned: active

Data request: Which outcome was assigned to "COC(=O)CNC(=O)c1cc(-c2ccncc2)nc2ccccc12" in this test?
Data returned: inactive

Data request: Which outcome was assigned to "CCOc1ccc(CN2CCN(Cc3c[nH]c4ccccc34)CC2)cc1" in this test?
Data returned: active

Data request: Which outcome was assigned to "O=C(COC(=O)c1c2c(nc3ccccc13)/C(=C\c1cccs1)CCC2)Nc1ccccc1Cl" in this test?
Data returned: active

Data request: Which outcome was assigned to "CCCc1cc(=O)oc2cc(OCC(=O)Nc3ccc(CN4CCOCC4)cc3)c(Cl)cc12" in this test?
Data returned: inactive

Data request: Which outcome was assigned to CC(NC(=O)COC(=O)c1ccc2ccccc2n1)c1ccccc1 (stereo not given) in this test?
Data returned: inactive

====

Assay: qHTS screen for small molecules that inhibit ELG1-dependent DNA repair in human embryonic kidney (HEK293T) cells expressing luciferase-tagged ELG1; also: nearly all actives have a fitted effect of over 55% in size
Details: HEK293T ELG1-luciferase reporter, luminescence, 16 h, DNA damage induced by 5-fluorouridine; series mostly up to 46.1 µM
Among all 330,000 compounds or so, about 7,700 (2.3%) were called active. Another 26% or so got no clear call; they are omitted. Many of the other results were omitted from the sample, so actives are more common in it than they were.
QUANTITY KIND: outcome

Consider the reported outcome for these compounds:
Cc1ccc(S(=O)(=O)NCc2ccc(C(=O)NC3CCC(C)CC3)cc2)cc1 (stereo not given) ... inactive
N#Cc1cccc(NC(=O)C2CCCN(C(=O)c3ccc(Cl)cc3)C2)c1 (stereo not given) ... inactive
Cc1ccc(C(=O)NCC(=O)O)cc1S(=O)(=O)N1CCCCC1 ... inactive
Cc1ccc(C(=O)OCC(=O)Nc2ccc(Cl)cn2)cc1S(=O)(=O)N1CCOCC1 ... inactive

Okay, now this compound:
Data request: Respond only with outcome recorded for "C=CCN1CN(S(=O)(=O)c2ccc(OC)cc2)c2nc3ccccc3nc21"
Data returned: inactive

====

Assay: qHTS screen for small molecules that inhibit ELG1-dependent DNA repair in human embryonic kidney (HEK293T) cells expressing luciferase-tagged ELG1; also: nearly all actives have a fitted effect of over 55% in size
Details: HEK293T ELG1-luciferase reporter, luminescence, 16 h, DNA damage induced by 5-fluorouridine; series mostly up to 46.1 µM
About 7,700 (2.3%) of roughly 330,000 compounds were called active. Not shown: some 26% with an inconclusive outcome. Calls follow the shape of the dose curve; as a rule, active = well fitted inhibition curve with a large enough effect; inconclusive = small, poorly fitted or top-dose-only effect, or effect the other way; inactive = flat fitted curve, though single readings scatter. The sample holds actives, similar compounds and a random draw of the others, so the mix is not that of the screen.
// one of 1 = active, 0 = inactive, no free text

Cc1nc2sc(C(=O)c3ccccc3)c(N)c2c2c1CCCC2 ... 0

Data request: Which outcome was assigned to "Cc1cccc(NC(=O)c2sc3nc4c(c(-c5ccco5)c3c2N)CCC4)c1" in this test?
Data returned: 0

Data request: Which outcome was assigned to "O=c1ccc2c(-c3ccccc3S(=O)(=O)O)c3ccc(O)c(O)c3oc-2c1O" in this test?
Data returned: 1

====

Experiment: qHTS screen for small molecules that inhibit ELG1-dependent DNA repair in human embryonic kidney (HEK293T) cells expressing luciferase-tagged ELG1; also: nearly all actives have a fitted effect of over 55% in size
Settings: HEK293T ELG1-luciferase reporter, luminescence, 16 h, DNA damage induced by 5-fluorouridine; series mostly up to 46.1 µM
Screen size: about 330,000 compounds; about 7,700 (2.3%) were called active. Not shown: some 26% with an inconclusive outcome. Calls follow the shape of the dose curve; as a rule, active = well fitted inhibition curve with a large enough effect; inconclusive = small, poorly fitted or top-dose-only effect, or effect the other way; inactive = flat fitted curve, though single readings scatter. The list comes from a sample in which actives are over-represented; it also holds close analogues and randomly drawn compounds.
// one of 1 (active), -1 (inactive), no free text

CC(C)(C)c1ccc(NC(=O)NCc2ccco2)cc1 ... -1
COc1ccc(-c2ccc(Nc3ccc(S(=O)(=O)N4CCCC4)cc3)nn2)cc1OC ... 1
CCOCC(=O)Nc1sc2c(c1C(=O)OCC)CCCC2 ... -1
CCN(CC)c1ccc(/C=N/NC(=O)c2cnccn2)c(O)c1 ... 1
Cc1cccc(C)c1NC(=O)COC(=O)c1c(C)nn(-c2ccccc2)c1C ... -1
COC(=O)c1c(NC(=O)COC(=O)[C@@H](NS(=O)(=O)c2ccccc2)C(C)C)sc2c1CCC2 ... 1

Data request: Which outcome was assigned to "CC1=Nn2c(nnc2-c2ccccc2)SC1" in this test?
Data returned: -1

Data request: Which outcome was assigned to "COC(=O)c1cc(NC(=O)c2cc(C(C)(C)C)nn2Cc2cccc(C)c2)ccc1N1CCOCC1" in this test?
Data returned: 1

Data request: Which outcome was assigned to CCN(C(=O)CSc1nnnn1-c1ccc(OC)cc1)C1CCS(=O)(=O)C1 (configuration not stated) in this test?
Data returned: -1

====

Experiment: qHTS screen for small molecules that inhibit ELG1-dependent DNA repair in human embryonic kidney (HEK293T) cells expressing luciferase-tagged ELG1; also: nearly all actives have a fitted effect of over 55% in size
Details: HEK293T ELG1-luciferase reporter, luminescence, 16 h, DNA damage induced by 5-fluorouridine; series mostly up to 46.1 µM
The campaign covered roughly 330,000 compounds. About 7,700 (2.3%) were called active. About 26% were inconclusive and are not listed. Calls follow the shape of the dose curve; as a rule, active = well fitted inhibition curve with a large enough effect; inconclusive = small, poorly fitted or top-dose-only effect, or effect the other way; inactive = flat fitted curve, though single readings scatter. The sample holds actives, similar compounds and a random draw of the others, so the mix is not that of the screen.
// one of active, inactive, no free text

These recorded examples may help you get a feel for the data.
COc1ccc(CNC(=O)COC(=O)c2sccc2C)cc1OC ... inactive
COCCNc1cc(-c2ccccc2)nc2cc(-c3cccc(F)c3)nn12 ... active
O=C(O)C1CCN(c2ccc([N+](=O)[O-])cc2[N+](=O)[O-])CC1 ... inactive
O=S1(=O)CCOC[C@H](CC2CCCCC2)N1Cc1ccc(F)cc1 ... inactive
CC(C)(C)OC(=O)Nc1ccc([C@@H](NC(=O)OC(C)(C)C)C(=O)OC(C)(C)C)cc1 ... inactive
CCOc1ccc(-n2c(SCC(=O)OC)nc3sc4c(c3c2=O)CCN(C)C4)cc1 ... inactive

Turning now to a further record.
Data request: Which outcome was assigned to COC(=O)C(C)Sc1ccc2nnc(-c3cccc(F)c3)n2n1 (stereo not given) in this test?
Data returned: inactive

====

Experiment: qHTS screen for small molecules that inhibit ELG1-dependent DNA repair in human embryonic kidney (HEK293T) cells expressing luciferase-tagged ELG1; also: nearly all actives have a fitted effect of over 55% in size
Conditions: HEK293T ELG1-luciferase reporter, luminescence, 16 h, DNA damage induced by 5-fluorouridine; series mostly up to 46.1 µM
Out of some 330,000 compounds screened, about 7,700 (2.3%) were called active. Roughly 26% stayed inconclusive and do not appear here. Calls come from the whole dose curve; as a rule, active = well fitted inhibition curve with a large enough effect; inconclusive = small, poorly fitted or top-dose-only effect, or effect the other way; inactive = flat fitted curve, though single readings scatter. What follows is part of a selection rich in actives, with near analogues and random picks from the rest.
// one of 1 = active, 0 = inactive, no free text

Cc1ccc(S(=O)(=O)NCCC(=O)OCC(=O)N(C)c2ccccc2)cc1 ... 0
CCn1c2ccccc2c2cc(NC(=O)COC(=O)c3cc(S(=O)(=O)N4CCCCC4)ccc3Cl)ccc21 ... 0
O=C(CSc1nnc(-c2cccs2)n1-c1ccccc1)NCc1ccco1 ... 0
CCc1ccc(NC(=O)CSc2nnc(-c3cnccn3)n2Cc2ccco2)cc1 ... 0
C=CCn1cc(C(=O)NCc2ccc(Cl)cc2)c(=O)c2cc(S(=O)(=O)N(CC)CC)ccc21 ... 1
Cc1c(NC(=O)CN(C)CC(=O)Nc2ccc(F)c(F)c2F)c(=O)n(-c2ccccc2)n1C ... 0
CCN1CCN(c2ccc(S(=O)(=O)N3CCCCC3)cc2NC(=O)c2cccc(NC(C)=O)c2)CC1 ... 0
CCC1Nc2ncnc(N3CCN(c4ccccc4)CC3)c2N(Cc2ccc(Cl)cc2)C1=O (centres undefined) ... 0

Turning now to a further record.
Data request: Which outcome was assigned to "CCn1c(O)c(N=NC(=O)c2cccc(S(=O)(=O)N3CCCCC3)c2)c2ccccc21" in this test?
Data returned: 1

Values were extracted from PubChem BioAssay AID504467.
